# TARGET UNDER TEST: T1, human GIP receptor (human, UniProt P48546 22-466)
# T1 sequence (looked up): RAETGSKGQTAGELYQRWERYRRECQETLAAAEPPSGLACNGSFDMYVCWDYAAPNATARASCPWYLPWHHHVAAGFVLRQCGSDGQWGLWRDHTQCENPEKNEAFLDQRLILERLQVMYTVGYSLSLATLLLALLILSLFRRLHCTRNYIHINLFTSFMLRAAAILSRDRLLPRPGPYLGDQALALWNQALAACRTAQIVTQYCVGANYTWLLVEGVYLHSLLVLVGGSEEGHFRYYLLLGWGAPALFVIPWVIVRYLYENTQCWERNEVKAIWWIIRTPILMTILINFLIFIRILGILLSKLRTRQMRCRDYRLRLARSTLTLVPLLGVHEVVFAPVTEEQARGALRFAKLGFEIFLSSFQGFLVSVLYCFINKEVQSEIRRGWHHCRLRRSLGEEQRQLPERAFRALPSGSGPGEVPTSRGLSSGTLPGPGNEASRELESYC
# EXPERIMENT: cell-based or functional assay
ENDPOINT: cAMP EC50 (pM)
I only need the number, in pM, no unit after it.

cAMP EC50 recorded for this binder, IP087 (Fc fusion) YSEGTFTSDYSKLLEEEAVRLFIEWLLAGPAAAGGSGSTASSGSGSATGGGGAATHTCPPCPAPEF , is 8.6

cAMP EC50 recorded for this binder, IP222 (Fc fusion) YSEGTFTSDYSKLLEEEAVRLFIEWLKNGGPSSGAPPPSAAAGGSGSTASSGSGSATGGGGAATHTCPPCPAPEF , is 15

cAMP EC50 recorded for this binder, IP253 (Fc fusion) YSEGTFTSDYSKLLDEEAVRLFIEWLLAGAPPGGSGSTASSGSGSATGGGGAATHTCPPCPAPEF , is 9.3

cAMP EC50 recorded for this binder, IP276 (Fc fusion) YSEGTFTSDYSKLLEEEAVRLFIEWLVKGPGGGGGGGGGGGGGGGGGATHTCPPC , is 13

cAMP EC50 recorded for this binder, IP355 (Fc fusion) YSEGTHTSLFSKLLEEEAVRLFIEWLLAGGGGGGSGGGGSGGGGSGGGGSATHTCPPC , is 170

cAMP EC50 recorded for this binder, IP256 (Fc fusion) YSEGTFTSDYSKLLEEEAVRLFIEWLLAGGHNITQGGGGGSGGGGSGGGGSGGGGSATHTCPPCPAPEF , is 37

cAMP EC50 recorded for this binder, IP322 (Fc fusion) YSEGTFTSDYSKLLEEEAVRLFIEWLVKGPGGGGGSGGGGSGGGGSGGGGSGGGGSA , is 26

cAMP EC50 recorded for this binder, IP262 (Fc fusion) YSEGTFTSDYSKLLEEEAVRLFIEWLLKGPGGGGGSGGGGSGGGGSGGGGSATHTCPPCPAPEF , is 10

cAMP EC50 recorded for this binder, IP327 (Fc fusion) YSEGTFTSDYSKLLEEEAVRLFIEWLLAGGGGGGGSGGGGSGGGGSGGGGSGGGGSGGGGSA , is 16

cAMP EC50 recorded for this binder, IP254 (Fc fusion) YSEGTFTSDYSKLLEEEAVRLFIEWLLAGNGTGGGGSGGGGSGGGGSGGGGSATHTCPPCPAPEF , is 26

cAMP EC50 recorded for this binder, IP201 (Fc fusion) YSEGTFTSDYSKLLEEEAVRLFIEWLLAGPSSGAPPPSAAAGGSGSTASSGSGSATGGGGAATHTCPPCPAPEF , is 11

These entries and their values trace back to patent US20160185837A1.
